All figures here come from patent US11667638B2.

molecular target: (α4)3(β2)2 nAChRs (Homo sapiens (Human), UniProt P17787+P43681); experiment: Maximal gating efficacy on (α4)3(β2)2 nAChRs in Xenopus oocytes, two electrode voltage clamp; type: cell-based; conditions: (α4)3(β2)2, low sensitivity stoichiometry; maximal current relative to 1 mM ACh
Sequence (P43681 29-627): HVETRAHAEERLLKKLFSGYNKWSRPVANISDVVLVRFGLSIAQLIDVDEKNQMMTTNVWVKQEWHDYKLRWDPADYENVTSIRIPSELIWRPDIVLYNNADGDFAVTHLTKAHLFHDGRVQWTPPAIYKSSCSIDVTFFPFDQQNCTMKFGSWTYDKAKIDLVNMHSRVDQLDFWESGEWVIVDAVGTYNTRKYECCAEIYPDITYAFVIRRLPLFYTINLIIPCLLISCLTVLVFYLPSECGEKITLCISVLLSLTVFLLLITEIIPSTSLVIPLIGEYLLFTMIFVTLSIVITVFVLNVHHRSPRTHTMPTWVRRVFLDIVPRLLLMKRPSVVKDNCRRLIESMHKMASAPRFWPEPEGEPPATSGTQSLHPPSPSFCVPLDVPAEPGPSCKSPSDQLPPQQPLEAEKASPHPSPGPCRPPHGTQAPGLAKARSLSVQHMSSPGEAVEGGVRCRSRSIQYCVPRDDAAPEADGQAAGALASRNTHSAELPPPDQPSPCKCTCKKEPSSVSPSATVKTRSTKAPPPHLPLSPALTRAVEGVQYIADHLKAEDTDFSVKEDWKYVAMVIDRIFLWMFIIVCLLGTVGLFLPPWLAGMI
Sequence (P17787 26-502): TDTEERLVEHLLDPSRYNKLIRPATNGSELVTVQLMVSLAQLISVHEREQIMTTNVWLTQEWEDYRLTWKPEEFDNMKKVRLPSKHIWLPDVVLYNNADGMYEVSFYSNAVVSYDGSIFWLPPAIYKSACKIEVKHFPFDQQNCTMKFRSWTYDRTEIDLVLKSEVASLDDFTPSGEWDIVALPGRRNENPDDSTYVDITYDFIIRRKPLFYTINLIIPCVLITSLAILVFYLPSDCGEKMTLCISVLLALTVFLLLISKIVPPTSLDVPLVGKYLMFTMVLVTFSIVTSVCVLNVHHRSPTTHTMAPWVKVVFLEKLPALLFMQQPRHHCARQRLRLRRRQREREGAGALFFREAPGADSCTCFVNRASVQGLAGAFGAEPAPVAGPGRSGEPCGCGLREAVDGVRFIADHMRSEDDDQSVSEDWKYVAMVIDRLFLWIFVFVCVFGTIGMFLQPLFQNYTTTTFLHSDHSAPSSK
So basically, if Relative efficacy (ACh) comes in under 0.03 it's Satisfied, and if it's 0.03 or more it's Not satisfied.

Take a look at these entries with their results.
COc1cc2n(c(=O)c1)CC1CNC[C@@H]2C1 (single isomer, unassigned; (-)) [Compound 69, (−)4-Methoxycytisine] : Not satisfied
CNCc1cc2n(c(=O)c1)CC1CNC[C@@H]2C1 (single isomer, unassigned; (-)) [Compound 152, (−)4-((N-methyl)aminomethyl)cytisine] : Not satisfied
COC(=O)c1cc2n(c(=O)c1)CC1CNC[C@@H]2C1 (single isomer, unassigned; (-)) [Compound 119, (−)4-carboxymethycytisine] : Satisfied
Cl.O=c1cc(CO)cc2n1CC1CNC[C@@H]2C1 (single isomer, unassigned; (-)) [Compound 122, (−)4-(Hydroxymethyl)cytisine] : Not satisfied
CCc1cc2n(c(=O)c1Br)CC1CNCC2C1 (single isomer, unassigned; (-)) [BS74, (−)-(3-bromo-4-ethyl)cytisine] : Not satisfied

Switching to the query record.
Input: Dear reviewer, please state whether Nc1cc2n(c(=O)c1)CC1CNC[C@@H]2C1 (single isomer, unassigned; (+)) [Compound 81, (+)4-aminocytisine] has Relative efficacy (ACh) strictly beneath 0.03.
Output: Satisfied
